System: U-251
Assay: NCI tumour cell line growth inhibition, 48 h
Active and inactive are the calls of the source. Cut-off read from the data, not from the text of the source: active = GI50 up to about 1.1 µM and inactive = higher.
test.readout: GI50

molecule	GI50
Cc1ccc(Sc2ccccc2N)cc1	67.3 µM (inactive)
CSc1cnc2ccccc2c1SC1CN(Cc2ccccc2)c2ccccc2C1=O (stereo unspecified)	> 100 µM (inactive)
CSC1=NN(c2ccccc2)C(=O)C1=C(SC)SC	22.2 µM (inactive)
CCCN(CCC)c1c([N+](=O)[O-])cc(C(=O)N(C)C)cc1[N+](=O)[O-]	86.5 µM (inactive)
O=C(Nc1ccn(C2CCC(CO)O2)c(=O)n1)c1ccccc1 (stereo unspecified)	> 100 µM (inactive)

With those in mind, consider the next molecule.
Read the entry `CCN(CC)c1c(N(CC)CC)c(=O)c1=O` and write its reported GI50.
22.9 µM (inactive)
